- TARGET_UNDER_TEST: Glycogen synthase kinase-3 beta (Homo sapiens)
- Sequence (P49841 whole entry): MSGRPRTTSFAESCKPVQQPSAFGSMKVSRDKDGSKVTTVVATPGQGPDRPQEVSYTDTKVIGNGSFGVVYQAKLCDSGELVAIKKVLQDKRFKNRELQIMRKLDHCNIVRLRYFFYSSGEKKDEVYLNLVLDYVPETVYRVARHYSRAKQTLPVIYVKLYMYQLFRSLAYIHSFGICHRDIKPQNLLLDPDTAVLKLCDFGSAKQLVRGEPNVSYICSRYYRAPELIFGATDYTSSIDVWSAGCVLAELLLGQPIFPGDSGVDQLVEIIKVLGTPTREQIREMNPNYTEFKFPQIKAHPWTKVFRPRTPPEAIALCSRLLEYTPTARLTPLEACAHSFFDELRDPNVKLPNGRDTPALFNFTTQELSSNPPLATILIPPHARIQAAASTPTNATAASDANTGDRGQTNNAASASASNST
- RUN_DESCRIPTION: concentration-response blocking of human GSK3B – biochemical, luminescence, cell-free homogeneous, retest, dose response (AID 434954)
pEC50: −log10 of the molar value.
MEASURED_METRIC: pEC50

Solved cases below.
c1cncc(-c2nc(NCC3CCCO3)c3ccccc3n2)c1 (centres undefined): < 3.52
COc1ccc(CCNc2nc(-c3cccnc3)nc3ccccc23)cc1OC: < 3.52
COc1ccc(C(=O)ON=C(C)c2cccs2)cc1 [MLS000544771]: 4.86
CC(=O)N(\C=C/C=C/C=C1\Sc2ccccc2C1=O)c1ccccc1: < 3.52

Q: Fill in: pEC50 of CCOC(=O)c1c(C)[nH]c(C(=O)CSc2nccc(C)n2)c1C [MLS000391683] is ___
A: < 3.52

Q: Fill in: pEC50 of Cc1ccc(CNc2nc(N)c([N+](=O)[O-])c(NCCO)n2)cc1 is ___
A: 3.93

Q: Fill in: pEC50 of Cc1oc2ccc(OC(=O)c3cccs3)cc2c1C(=O)OC(C)C is ___
A: < 3.52

Q: Fill in: pEC50 of CCOc1ccc2c(c1)-c1c(ssc1=S)C(C)(C)N2C [MLS000529181] is ___
A: < 3.52

Q: Fill in: pEC50 of O=C(NN=Cc1ccco1)c1ccn[nH]1 [SMR000279368] is ___
A: < 3.52
